# EXPERIMENTAL_SYSTEM: HLA-A*33:01
# ASSAY_SUMMARY: IEDB peptide-MHC binding, purified MHC/competitive/radioactivity; filed as Kd, often an IC50 or EC50 that approximates it; bounds were set here for any values at or beyond the usual limits of such assays
# APPLIED_CONDITIONS: source organism: Vaccinia virus WR
PROPERTY_NAME: Kd

Past entries and their recorded results:
[[record]]
seq_text = "RARFIGGYIK"
result = "11.7 µM"

[[record]]
seq_text = "YLKNYKNFDY"
result = "≥ 70 µM"


Lab note: each sequence below needs its Kd filled in.
1. DAEACYIYK
2. EILKINSVKY
3. VTDLENRLKK
4. KIKQDVRDK
5. ELGIAIFNNR
6. NMKQCTNDIY
7. NLTETFRDY
8. ELYVSSSYK

1: 0.234 µM; 2: 5.17 µM; 3: ≥ 70 µM; 4: ≥ 77.7 µM; 5: 0.16 µM; 6: ≥ 65.7 µM; 7: ≥ 77.7 µM; 8: ≥ 54.2 µM

Lab note: each sequence below needs its Kd filled in.
1. TSKTTILSK
2. RTRLYDYFTR
3. SLIKFISDNK
4. TIKYSNDNRY
5. VSAQNISFK

1. ≥ 37.7 µM
2. 1.63 µM
3. ≥ 70 µM
4. ≥ 70 µM
5. ≥ 33.9 µM
